Source: patent US20150018311A1

# System: Mycobacterium tuberculosis (H37Rv)
# protocol: Growth in liquid media in presence of test compound
# Type: cell-based
# particulars: 5 mg/L
readout-name: Growth in the presence of test compound, M. tuberculosis

Observe how each entry below is paired with its result.
{"columns": ["compound", "result"],
 "data": [
  ["C[C@@H](NC(=O)[C@@H](N)Cc1ccccc1)[C@@H](Cc1ccccc1)B1OC2CC3CC(C3(C)C)[C@@]2(C)O1 (stereo partly shown) [Compound 27]", "+"],
  ["CC1(C)C2CC3OB(CC(Cc4ccccc4)NC(=O)C(N)CCCCN)OC3(C)C1C2 (stereo not shown) [Compound 54]", "+"],
  ["N[C@@H](Cc1ccccc1)C(=O)NC[C@@H](Cc1ccccc1)[B-](F)(F)F.[K+] [Compound 42]", "+"],
  ["C[C@H](N)C(=O)N[C@@H](CB(O)O)Cc1ccccc1 [Compound 35]", "+"],
  ["C[C@H](N)C(=O)NC[C@H](Cc1ccccc1)B(O)O [Compound 40]", "±"],
  ["CC1(C)C2CC3OB([C@@H](CNC(=O)[C@@H](N)Cc4ccccc4)c4ccccc4)O[C@]3(C)C1C2 (stereo partly shown) [Compound 23]", "+"],
  ["CC1(C)C2CC3OB(C(Cc4ccccc4)C(Cc4ccccc4)NC(=O)C(N)CCCCN)OC3(C)C1C2 (stereo not shown) [Compound 31]", "+"],
  ["C[C@@H](B1OC2CC3CC(C3(C)C)[C@@]2(C)O1)[C@@H](Cc1ccccc1)NC(=O)[C@@H](N)Cc1ccccc1 (stereo partly shown) [Compound 28]", "+"]
]}

Ask: Requested read-out: Growth in the presence of test compound, M. tuberculosis. Entry: CC1(C)C2CC3OB([C@H](CCc4ccccc4)CNC(=O)[C@H](N)CCCCN)O[C@]3(C)C1C2 (stereo partly shown) [Compound 20]
Result: +

Ask: Requested read-out: Growth in the presence of test compound, M. tuberculosis. Entry: Cl.Cl.NCCCC[C@@H](N)C(=O)NC[C@@H](Cc1ccccc1)B(O)O [Compound 48]
Result: ±
